tgt: T1, recombinant human PAD4 (human, UniProt Q9UM07 1-663)
T1 construct: also called rhPAD4; hPAD4
experimental.details: SPR 37 C, captured antibody, PAD4 analyte, 2 mM EDTA
property.measured: pKd
Note on pKd: it is the negative log10 of concentration, concentration in mol/L.

# lookup: pKd of hz20-12 (antibody, V domains shown, light constant region not tied to this antibody) VH: QVQLVQSGAEVAKPGASVKVSCKASGYTFTNYGISWVRQRPGQGLEWMGEIYPRSGNTYHNEKFKDRVTMTTDTSTSTAYMELRSLRSEDTAVYYCARSMITTRYWYFDVWGKGTTVTVSS VL: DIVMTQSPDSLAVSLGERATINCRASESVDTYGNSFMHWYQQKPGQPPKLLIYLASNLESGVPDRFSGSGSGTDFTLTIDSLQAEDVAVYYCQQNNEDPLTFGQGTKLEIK
9.22

# lookup: pKd of hz13-3 (antibody, V domains shown, light constant region not tied to this antibody) VH: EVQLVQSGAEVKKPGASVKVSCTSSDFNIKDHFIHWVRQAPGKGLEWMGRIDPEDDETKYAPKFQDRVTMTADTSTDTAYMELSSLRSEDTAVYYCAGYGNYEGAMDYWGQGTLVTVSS VL: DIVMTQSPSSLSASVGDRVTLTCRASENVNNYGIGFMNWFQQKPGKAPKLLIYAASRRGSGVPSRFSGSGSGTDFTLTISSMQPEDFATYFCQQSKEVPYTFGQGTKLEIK
10.00

# lookup: pKd of hz13-7 (antibody, V domains shown, light constant region not tied to this antibody) VH: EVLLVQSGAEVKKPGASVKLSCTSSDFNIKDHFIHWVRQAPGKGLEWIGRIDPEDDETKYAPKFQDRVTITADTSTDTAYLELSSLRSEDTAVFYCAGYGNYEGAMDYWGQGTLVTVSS VL: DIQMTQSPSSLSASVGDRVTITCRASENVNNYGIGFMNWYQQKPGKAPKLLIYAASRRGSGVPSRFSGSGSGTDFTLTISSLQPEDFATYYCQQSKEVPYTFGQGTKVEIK
10.00
